Test system: HCT-15 colon
Assay: NCI tumour cell line growth inhibition, 48 h
Could you please report measured TGI for the items listed next?

N=c1c2c(=S)n(-c3ccccc3)c(=S)n(-c3ccccc3)c2nc(SCCN2CCCC2)n1-c1ccccc1; 3.86 µM
COC(=O)N[C@H](C(=O)O)C(C)O[Si](C)(C)C(C)(C)C (some centres undefined); > 100 µM
COc1cc(OC)cc(-c2n/c(=C\c3c(O)[nH]c4ccc(OC)cc34)cc3c2=Nc2ccccc2-3)c1; 15 µM
CC(C)(C)OC(=O)CN1CCNCCN(CC(=O)OC(C)(C)C)CCNCC1; > 100 µM
COc1ccc(-c2nc(-c3ccc(C)cc3)cn3ccnc23)cc1; > 50 µM

I'm hoping you can list TGI for every compound here, please.
1. CCCCCCCCCCCCCC[N+](C)(C)CCCCCCCCCCCCCC
2. O=C1CC(c2ccccc2)=Nc2ccccc2N1
3. Cc1ccc(-c2nc(N/N=C/c3ccc(O)cc3)c3ccccc3n2)cc1
4. Cc1cccc2nc3ccccc3c(Nc3ccc(NS(C)(=O)=O)cc3)c12
5. CCOC(=O)Nc1ccc2c(c1)c(CCCCCCc1nc3ccccc3c3ccc(NC(=O)OCC)cc13)nc1ccccc12
6. CC(=O)Nc1c(S(=O)(=O)c2ccccc2)c(C)c(C)n1Cc1ccccc1
7. O=C(O)c1cnc(-n2[nH]c3c(c2=O)CCCC3)[nH]c1=O

1: > 100 µM; 2: > 100 µM; 3: > 100 µM; 4: 31.6 µM; 5: > 100 µM; 6: > 100 µM; 7: > 100 µM

Could you report TGI for every entry in the following list?
1. NCCCC[C@@H]1NC(=O)[C@H](CC(=O)O)NC(=O)CNC(=O)[C@H](CCCN=C(N)N)NC(=O)[C@@H](N)CSSC[C@@H](C(=O)O)NC(=O)[C@H](CC(=O)O)NC(=O)[C@@H]2CCCN2C(=O)CNC1=O
2. COc1ccccc1NC(=O)CC(=O)N1N=C(N2c3ccccc3Sc3ccccc32)CC1c1ccccc1 (centres undefined)
3. Cc1sc2c(c1C)/C(=N\O)c1cccn1-2
4. COc1ncc(Nc2ncc([C@@H](C)N3CCN(S(C)(=O)=O)CC3)cc2-c2nc(C)nc(N)n2)cc1F
5. COc1c2c(c3ccccc3c1O)C1C=CC2C1 (centres undefined)

1. > 100 µM
2. > 100 µM
3. > 100 µM
4. > 100 µM
5. 22 µM

Respectfully, I request TGI for each entry included below.
1. NC(CSSCC(N)=NCC12CC3CC(CC(C3)C1)C2)=NCC12CC3CC(CC(C3)C1)C2
2. CC(C)(C)C1CCC2c3c([nH]c4ccccc34)C3C(=O)N(c4ccc(Cl)cc4)C(=O)C3C2C1 (centres undefined)

1: 25 µM; 2: > 100 µM
